# inhibition at 30 mg/kg listing for each entry below
Test system: Cyp1a1
METHOD_NOTES: In Vivo Mouse liver and spleen Cyp1a1 Modulation Assay (Example 1E)
Parameters: species or system C57BL/6 mice
TEST_CONTEXT: po, 4 h, dose 30 mg/kg, with AHR agonist VAG539 30 mg/kg po, qPCR, read-out: Cyp1a1 inhibition, Liver, 4 h

COMPOUND | inhibition at 30 mg/kg / %
CC(C)c1cnn2c(N[C@@H]3CCc4[nH]c5ccccc5c4C3)cc(-c3cncc(F)c3)nc12 [I-75a] | 55
CC(C)c1cnn2c(NCCc3c[nH]c4ccccc34)cc(-c3cccnc3)nc12 | 96
Cc1cnn2c(NCCc3c[nH]c4ccccc34)cc(-c3cncc(F)c3)nc12 | 98
CC(C)c1cnn2c(NCCc3c[nH]c4ccccc34)cc(-c3cncc(F)c3)nc12 | 50
CC(=O)c1cnn2c(NCCc3c[nH]c4ccccc34)cc(-c3cncc(F)c3)nc12 | 77
Fc1cncc(-c2cc(NCCc3c[nH]c4ccccc34)n3ncc(Br)c3n2)c1 | 90
Fc1cncc(-c2cc(NCCc3c[nH]c4ccccc34)n3nccc3n2)c1 | 94
